Measured On: BCRP (Homo sapiens, UniProt Q9UNQ0)
Sequence (Q9UNQ0 whole entry): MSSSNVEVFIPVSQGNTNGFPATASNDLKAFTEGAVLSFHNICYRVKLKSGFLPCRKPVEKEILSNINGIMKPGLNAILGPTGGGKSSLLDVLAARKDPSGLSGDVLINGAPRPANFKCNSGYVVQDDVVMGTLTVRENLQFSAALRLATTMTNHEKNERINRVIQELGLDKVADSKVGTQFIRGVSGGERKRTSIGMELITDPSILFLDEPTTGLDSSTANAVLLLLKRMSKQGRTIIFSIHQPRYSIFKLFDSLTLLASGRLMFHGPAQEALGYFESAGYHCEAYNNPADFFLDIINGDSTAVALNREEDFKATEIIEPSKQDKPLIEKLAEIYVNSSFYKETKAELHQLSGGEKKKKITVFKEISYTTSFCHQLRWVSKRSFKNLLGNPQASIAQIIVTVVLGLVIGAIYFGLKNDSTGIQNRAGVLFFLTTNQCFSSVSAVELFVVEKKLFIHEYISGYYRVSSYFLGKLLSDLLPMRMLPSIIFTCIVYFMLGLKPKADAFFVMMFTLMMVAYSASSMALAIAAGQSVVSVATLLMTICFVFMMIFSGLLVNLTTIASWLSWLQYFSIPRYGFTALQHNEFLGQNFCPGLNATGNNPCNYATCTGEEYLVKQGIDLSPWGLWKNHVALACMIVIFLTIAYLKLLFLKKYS
Protocol: biochemical
Condition Set: IC50 of telaprevir on BCRP-mediated transport, substrate E1S; K562/BCRP vesicles
Reported Property: pIC50
Please keep in mind that pIC50 is minus log10 of the molar concentration; only the number is needed.

input: Identify the measured pIC50 of CCC[C@H](NC(=O)[C@@H]1[C@H]2CCC[C@H]2CN1C(=O)[C@@H](NC(=O)[C@@H](NC(=O)c1cnccn1)C1CCCCC1)C(C)(C)C)C(=O)C(=O)NC1CC1 for BCRP (Homo sapiens, UniProt Q9UNQ0).
output: 4.52

----------
Measured On: BCRP (Homo sapiens, UniProt Q9UNQ0)
Protocol: biochemical
Condition Set: Ki, BCRP-mediated MTX transport; Lineweaver-Burk plot, 50 μmol/L telaprevir
Reported Property: Ki
Output should be the measured figure followed by the unit it is expressed in.

input: Entry under review: CCC[C@H](NC(=O)[C@@H]1[C@H]2CCC[C@H]2CN1C(=O)[C@@H](NC(=O)[C@@H](NC(=O)c1cnccn1)C1CCCCC1)C(C)(C)C)C(=O)C(=O)NC1CC1 . Reported Ki?
output: 94.8 µM
